Reported pIC50, human sputum leucocyte elastase (Homo sapiens, UniProt P08246).
Scale for pIC50: -log10 of concentration given in mol/L; no unit attached.

// query Supply reported pIC50 belonging to this molecule: CC(C)C(NC(=O)[C@@H]1[C@@H]2CC[C@@H](C2)N1C(=O)[C@@H](NC(=O)c1ccc(C(=O)NS(=O)(=O)c2ccc(Cl)cc2)cc1)C(C)C)C(=O)C(F)(F)F (stereo partly drawn)
// result 7.72

// query Tell me its pIC50 given CC(C)C(NC(=O)[C@@H]1C[C@@H]2CCCC[C@@H]2N1C(=O)[C@H](CCCCNC(=O)Cc1cc(C(C)(C)C)c(O)c(C(C)(C)C)c1)NC(=O)c1ccc(C(=O)NS(=O)(=O)c2ccc(Cl)cc2)cc1)C(=O)C(F)(F)F (stereo partly drawn) as the entry.
// result 7.15

// query Determine from records and report pIC50 for CC(C)C(NC(=O)[C@@H]1C2CCC(CC2)N1C(=O)[C@@H](NC(=O)c1ccc(C(=O)NS(=O)(=O)c2ccc(Cl)cc2)cc1)C(C)C)C(=O)C(F)(F)F (single isomer, unassigned)
// result 7.82

---

I'd appreciate it if you could supply pIC50 values for the items below.
The meaning of pIC50 here: minus log10 of the concentration in molar units.

// query With UniProt:P08246 as the test system, provide measured pIC50 for this compound: CC(C)C(NC(=O)[C@@H]1C[C@@H]2CCCC[C@@H]2N1C(=O)[C@@H](NC(=O)c1ccc(S(=O)(=O)NC(=O)c2ccc(CCN3CCC4(CC3)CNC(=O)O4)cc2)cc1)C(C)C)C(=O)C(F)(F)F (stereo partly drawn)
// result 7.38

// query Please tell me the measured pIC50 for CC(=O)N[C@@H](CSC(C)(C)C)C(=O)NS(=O)(=O)c1ccc(C(=O)N[C@H](C(=O)N2C3CCC(CC3)[C@H]2C(=O)NC(C(=O)C(F)(F)F)C(C)C)C(C)C)cc1 (stereo partly drawn) ; system: UniProt:P08246.
// result 7.72

// query Tell me its pIC50 on UniProt:P08246: CC(C)C(NC(=O)[C@@H]1C[C@@H]2CCCC[C@@H]2N1C(=O)[C@@H](NC(=O)c1ccc(S(=O)(=O)NC(=O)Nc2ccc(Cl)cc2)cc1)C(C)C)C(=O)C(F)(F)F (stereo partly drawn)
// result 7.51

---

STUDY_TARGET: human sputum leucocyte elastase (Homo sapiens, UniProt P08246)
Sequence (P08246 30-247 limits assumed): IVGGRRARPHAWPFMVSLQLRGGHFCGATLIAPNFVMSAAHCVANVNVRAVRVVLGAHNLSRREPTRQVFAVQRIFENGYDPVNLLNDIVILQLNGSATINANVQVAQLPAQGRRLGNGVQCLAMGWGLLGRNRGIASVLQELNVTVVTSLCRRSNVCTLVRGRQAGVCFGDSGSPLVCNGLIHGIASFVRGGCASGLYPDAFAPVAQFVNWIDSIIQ
PROTOCOL_SUMMARY: In vivo inhibitory activity: model of acute hemorrhagic edema in hamsters
Parameters: It is a glycoprotein of 25 to 30 kDa formed from 218 amino acids; from tissue; host or cells: human sputum (purified preparation)
CONDITION_NOTES: hamster, 10 μg intratracheally 3 hours before elastase (50 units); hemoglobin in broncho-alveolar washing 3 hours after elastase
Protocol: In vivo inhibitory activity: model of acute hemorrhagic edema in hamsters Tracheal instillation in hamsters of a purified preparation of human sputum leucocyte elastase leads to acute hemorrhaging which can be quantified by measuring the concentration of hemoglobin in the broncho-alveolar washing 3 hours after the elastase instillation. The study is carried out on male hamsters weighing […] (Syrian Golden, n=10 per batch). […]
Would you kindly list Inhibition (%) of hemorrhaging for each of these compounds?
Answer format: value, then unit.

// query In one line, give reported Inhibition (%) of hemorrhaging of the entry CC(C)C(NC(=O)[C@@H]1C[C@@H]2CCCC[C@@H]2N1C(=O)[C@@H](NC(=O)c1ccc(S(=O)(=O)NC(=O)Nc2ccc(Cl)cc2)cc1)C(C)C)C(=O)C(F)(F)F (stereo partly drawn) .
// result 64%

// query Report measured Inhibition (%) of hemorrhaging; entry is CC(C)C(NC(=O)[C@@H]1C[C@@H]2CCCC[C@@H]2N1C(=O)[C@@H](NC(=O)c1ccc(S(=O)(=O)NC(=O)c2ccc(CCN3CCC4(CC3)CNC(=O)O4)cc2)cc1)C(C)C)C(=O)C(F)(F)F (stereo partly drawn)
// result 42%

// query Using the record for CC(C)C(NC(=O)[C@@H]1C2CCC(CC2)N1C(=O)[C@@H](NC(=O)c1ccc(S(=O)(=O)NC(=O)C(C2CC2)C2CC2)cc1)C(C)C)C(=O)C(F)(F)F (stereo partly drawn) , state its measured Inhibition (%) of hemorrhaging.
// result 46%
